target: phosphor-EGFR in H1975(L585R/T790M) mutant EGFR expressing cells (Homo sapiens, UniProt P00533, L858R/T790M); assay: H1975 pEGFR MSD cellular assay; details: NCI-H1975 cells, serum starved, 1 hour compound incubation, pEGFR Tyr1068 MSD
Sequence (P00533 25-1210 T790M/L858R): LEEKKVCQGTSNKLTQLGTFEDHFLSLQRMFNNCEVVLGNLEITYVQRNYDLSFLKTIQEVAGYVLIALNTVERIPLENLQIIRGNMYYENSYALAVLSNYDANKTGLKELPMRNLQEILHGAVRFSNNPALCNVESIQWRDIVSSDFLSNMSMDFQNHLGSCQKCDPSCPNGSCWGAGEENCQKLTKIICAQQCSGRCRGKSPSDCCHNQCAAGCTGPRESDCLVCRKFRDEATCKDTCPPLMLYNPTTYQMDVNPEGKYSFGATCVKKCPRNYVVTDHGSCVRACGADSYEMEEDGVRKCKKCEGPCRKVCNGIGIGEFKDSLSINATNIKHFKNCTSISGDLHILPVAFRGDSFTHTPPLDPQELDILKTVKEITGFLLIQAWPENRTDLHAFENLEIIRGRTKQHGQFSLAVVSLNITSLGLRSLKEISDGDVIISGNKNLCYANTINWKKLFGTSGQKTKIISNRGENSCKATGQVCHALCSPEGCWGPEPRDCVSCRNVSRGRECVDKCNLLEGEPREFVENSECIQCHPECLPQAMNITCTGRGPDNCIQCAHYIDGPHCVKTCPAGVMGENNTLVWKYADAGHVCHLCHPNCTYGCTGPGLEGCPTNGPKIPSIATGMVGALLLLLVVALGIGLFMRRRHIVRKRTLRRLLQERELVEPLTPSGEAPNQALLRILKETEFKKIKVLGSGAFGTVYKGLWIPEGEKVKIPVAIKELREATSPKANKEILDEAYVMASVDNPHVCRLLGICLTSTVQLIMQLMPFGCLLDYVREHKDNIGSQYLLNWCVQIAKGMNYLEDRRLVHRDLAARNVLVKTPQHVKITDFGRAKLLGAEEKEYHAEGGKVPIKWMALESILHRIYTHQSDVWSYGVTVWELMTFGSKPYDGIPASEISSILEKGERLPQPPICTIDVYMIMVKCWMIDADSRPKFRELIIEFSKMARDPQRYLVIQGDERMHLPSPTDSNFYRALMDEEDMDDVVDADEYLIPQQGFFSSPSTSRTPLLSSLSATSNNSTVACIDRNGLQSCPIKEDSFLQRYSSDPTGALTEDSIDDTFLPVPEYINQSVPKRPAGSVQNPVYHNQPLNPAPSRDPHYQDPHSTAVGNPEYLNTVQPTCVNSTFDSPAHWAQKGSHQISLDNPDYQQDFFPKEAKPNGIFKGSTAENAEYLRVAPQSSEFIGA
measured-quantity: EC50 (nM)
Return type: number; implicit unit nM.

Return the recorded EC50 value; entry: `CC(C)n1c(OCCO)nc2cnc(Nc3ccnc(-c4cnn(S(=O)(=O)C5CC5)c4)n3)cc21`
414

Return the recorded EC50 value; entry: `COC1CCN(c2nccc(Nc3cc4c(cn3)nc(COCCN(C)C)n4C(C)C)n2)CC1`
585

Return the recorded EC50 value; entry: `COCC(C)(C)n1c(C)nc2cnc(Nc3ccnc(N4CCC(OC)CC4)n3)cc21`
4710

Return the recorded EC50 value; entry: `COC1CCN(c2nccc(Nc3cc4c(cn3)c(C(N)=O)cn4C(C)C)n2)CC1`
710

Return the recorded EC50 value; entry: `CCNC(=O)c1cn(C(C)C)c2cc(Nc3ccnc(N4CCC(OC)CC4)n3)ncc12`
236

Return the recorded EC50 value; entry: CC(C)n1cc(C2CNC(=O)C2)c2cnc(Nc3ccnc(-c4cnn(S(=O)(=O)C5CC5)c4)n3)cc21 (centres unmarked)
1050

Return the recorded EC50 value; entry: `CC(=O)Nc1cn(C(C)C)c2cc(Nc3ccnc(-c4cnn(S(=O)(=O)C5CC5)c4)n3)ncc12`
105

Return the recorded EC50 value; entry: `Cc1c(C(=O)NC2CCOCC2)c2cnc(Nc3ccnc(-c4cnn(S(=O)(=O)C5CC5)c4)n3)cc2n1C(C)C`
252

* * *

target: EGFR del746-750 T790M (Homo sapiens, UniProt P00533, DEL746-750/T790M); assay: EGFR del746-750 T790M biochemical assay (Caliper mobility shift); conditions: 5 μM ATP, 30 min, room temperature; apparent Ki (Morrison) converted by Cheng-Prusoff, Km of ATP 2.1 μM; read-out: EGFR(T790M/d746-750) Ki
Sequence (P00533 with tags, fused parts or gaps DEL746-750/T790M limits assumed): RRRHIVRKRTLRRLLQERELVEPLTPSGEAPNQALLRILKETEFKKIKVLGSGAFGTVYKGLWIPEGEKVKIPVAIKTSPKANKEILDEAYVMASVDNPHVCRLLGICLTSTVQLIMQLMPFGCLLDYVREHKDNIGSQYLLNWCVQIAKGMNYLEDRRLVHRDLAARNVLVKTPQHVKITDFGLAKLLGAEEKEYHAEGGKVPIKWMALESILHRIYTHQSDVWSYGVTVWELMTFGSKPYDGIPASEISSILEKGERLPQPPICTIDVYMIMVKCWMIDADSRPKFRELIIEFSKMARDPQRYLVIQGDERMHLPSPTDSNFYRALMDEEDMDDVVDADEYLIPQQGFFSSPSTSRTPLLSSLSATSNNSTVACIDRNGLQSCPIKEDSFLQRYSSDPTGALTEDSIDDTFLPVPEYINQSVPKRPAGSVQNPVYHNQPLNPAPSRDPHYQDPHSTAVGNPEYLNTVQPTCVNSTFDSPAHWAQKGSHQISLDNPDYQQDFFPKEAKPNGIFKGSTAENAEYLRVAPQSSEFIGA
pKi: −log10 of the molar value.
Each entry gets Criterion not met if its pKi stays under 8, and Criterion met if its pKi is 8 or above.

Does the reported pKi for `Cc1nc2cnc(Nc3ccnc(-n4cnc(S(C)(=O)=O)c4)n3)cc2n1C(C)C` fall at or above the 8 mark?
Criterion not met

Does the reported pKi for `CO[C@@H]1CCN(c2nccc(Nc3cc4c(cn3)nc([C@@H](C)O)n4[C@@H](C)C(F)(F)F)n2)C[C@@H]1F` fall at or above the 8 mark?
Criterion met

Does the reported pKi for CC(C)n1cnc2cnc(Nc3ccnc(N4CCCC(C(N)=O)C4)n3)cc21 (centres unmarked) fall at or above the 8 mark?
Criterion not met

Does the reported pKi for `Cc1nc2cnc(Nc3ccnc(OCC(C)(C)S(C)(=O)=O)n3)cc2n1C(C)C` fall at or above the 8 mark?
Criterion not met

Does the reported pKi for `CCNc1ncc(-c2nccc(Nc3cc4c(cn3)nc(C)n4C(C)C)n2)s1` fall at or above the 8 mark?
Criterion met

Does the reported pKi for `CC(C)n1c(CO)nc2cnc(Nc3ccnc(N4CC5CC4C5)n3)cc21` fall at or above the 8 mark?
Criterion not met

* * *

target: EGFR del746-750 T790M (Homo sapiens, UniProt P00533, DEL746-750/T790M); experiment: EGFR del746-750 T790M biochemical assay (Caliper mobility shift); details: 5 μM ATP, 30 min, room temperature; apparent Ki (Morrison) converted by Cheng-Prusoff, Km of ATP 2.1 μM; read-out: EGFR(T790M/d746-750) Ki
Label True when Ki is strictly below 4 nM; otherwise label False.

Just wondering, is Ki of `Cc1nc2cnc(Nc3ccnc(-c4cnn(S(=O)(=O)C5CC5)c4)n3)cc2n1C(C)C` below 4 nM?
True

Just wondering, is Ki of `Cc1nc2cnc(Nc3ccnc(-c4cnn(C)c4)n3)cc2n1C(C)C` below 4 nM?
False

Just wondering, is Ki of CO[C@H]1CCN(c2nccc(Nc3cc4c(cn3)nc(C)n4C(C)C)n2)C[C@H]1F (racemic) [Example 607] below 4 nM?
False

Just wondering, is Ki of CCC(C)n1cc(C(=O)NC2CCN(C3COC3)CC2)c2cnc(Nc3ccnc(N4CC[C@@H](OC)[C@@H](F)C4)n3)cc21 (single isomer, unassigned) [Example 326] below 4 nM?
True

Just wondering, is Ki of CCC(C)n1cc(C(=O)NC2CCC(O)CC2)c2cnc(Nc3ccnc(-c4cnn(S(=O)(=O)C5CC5)c4)n3)cc21 (centres unmarked) below 4 nM?
True

Just wondering, is Ki of `CC(C)n1cnc2cnc(Nc3ccnc(-c4cnn(S(=O)(=O)C5CC5)c4)n3)cc21` below 4 nM?
True

Just wondering, is Ki of `CC1(C)CCOc2nc3cnc(Nc4ccnc(-c5cnn(S(=O)(=O)C6CC6)c5)n4)cc3n21` below 4 nM?
False

Just wondering, is Ki of `Cc1c(C(=O)NC2CCOCC2)c2cnc(Nc3ccnc(-c4cnn(S(=O)(=O)C5CC5)c4)n3)cc2n1C(C)C` below 4 nM?
True

Just wondering, is Ki of `COC1CCN(c2nccc(Nc3cc4c(cn3)nc(CO)n4C(C)C)n2)CC1` below 4 nM?
False

Just wondering, is Ki of `Cc1nc2cnc(Nc3ccnc(N4CC[C@@](C)(O)[C@H](F)C4)n3)cc2n1C(C)C` below 4 nM?
False

Just wondering, is Ki of `COC1(CO)CCN(c2nccc(Nc3cc4c(cn3)nc([C@@H](C)O)n4[C@@H](C)C(F)(F)F)n2)CC1` below 4 nM?
False

Just wondering, is Ki of CCC(C)n1cc(C(=O)NC2CCOCC2)c2cnc(Nc3ccnc(N4C[C@@H](F)[C@@H](O)C(C)(C)C4)n3)cc21 (mixture of isomers) below 4 nM?
True

Just wondering, is Ki of `CCc1ncc(-c2nccc(Nc3cc4c(cn3)nc(C)n4C(C)C)n2)s1` below 4 nM?
False

Just wondering, is Ki of `Cc1cn(CCO)nc1-c1cn(C(C)C)c2cc(Nc3ccnc(-c4cnn(S(=O)(=O)C5CC5)c4)n3)ncc12` below 4 nM?
True

Just wondering, is Ki of CC(CC1CC1)n1c(CO)nc2cnc(Nc3ccnc(-c4cnn(S(=O)(=O)C5CC5)c4)n3)cc21 (centres unmarked) below 4 nM?
True

Just wondering, is Ki of COC1CCN(c2nccc(Nc3cc4c(cn3)nc([C@@H](C)O)n4[C@H](C)C(F)(F)F)n2)CC1F (mixture of isomers) below 4 nM?
False

Just wondering, is Ki of CC(C)n1c(CO)nc2cnc(Nc3ccnc(N4CCCCC4CCO)n3)cc21 (centres unmarked) below 4 nM?
False

Just wondering, is Ki of `Cc1n[nH]cc1-c1nccc(Nc2cc3c(cn2)nc(C)n3C(C)C)n1` below 4 nM?
False

Just wondering, is Ki of CC(C)n1c(CO)nc2cnc(Nc3ccnc(N4CC[C@H](O)[C@H](C)C4)n3)cc21 (racemic) below 4 nM?
False

Just wondering, is Ki of `CC(C)n1cc(C(=O)NC2CCSCC2)c2cnc(Nc3ccnc(-c4cnn(S(=O)(=O)C5CC5)c4)n3)cc21` below 4 nM?
True

Just wondering, is Ki of `CO[C@H]1CCN(c2nccc(Nc3cc4c(cn3)nc([C@H](C)O)n4[C@@H](C)C(F)(F)F)n2)C[C@H]1F` below 4 nM?
False

Just wondering, is Ki of CCC(C)n1cc(C(=O)NC2CCN(C3COC3)CC2)c2cnc(Nc3ccnc(N4CC[C@@H](OC)[C@@H](F)C4)n3)cc21 (single isomer, unassigned) [Example 325] below 4 nM?
True

Just wondering, is Ki of `C[C@H](n1c([C@@H](C)O)nc2cnc(Nc3ccnc(N4CC[C@](C)(O)[C@H](F)C4)n3)cc21)C(F)(F)F` below 4 nM?
False

Just wondering, is Ki of `Cc1nc2cnc(Nc3ccnc(N4CCC5(CCO5)CC4)n3)cc2n1C(C)C` below 4 nM?
False

Just wondering, is Ki of `CNc1nc2cnc(Nc3ccnc(N4CCC(OC)CC4)n3)cc2n1C(C)C` below 4 nM?
False

Just wondering, is Ki of `CNc1ncc(-c2nccc(Nc3cc4c(cn3)nc(C)n4C(C)C)n2)s1` below 4 nM?
True

Just wondering, is Ki of COC1CCN(c2nccc(Nc3cc4c(cn3)nc(C)n4C(C)C3CC3)n2)CC1 (centres unmarked) below 4 nM?
False

Just wondering, is Ki of `CC(C)n1cc(-c2cnn(CC(N)=O)c2)c2cnc(Nc3ccnc(-c4cnn(S(=O)(=O)C5CC5)c4)n3)cc21` below 4 nM?
True

Recorded values, source patent US9890152B2.
